Molecular target: T1, human CD20 (human, UniProt P11836 1-297)
T1 sequence: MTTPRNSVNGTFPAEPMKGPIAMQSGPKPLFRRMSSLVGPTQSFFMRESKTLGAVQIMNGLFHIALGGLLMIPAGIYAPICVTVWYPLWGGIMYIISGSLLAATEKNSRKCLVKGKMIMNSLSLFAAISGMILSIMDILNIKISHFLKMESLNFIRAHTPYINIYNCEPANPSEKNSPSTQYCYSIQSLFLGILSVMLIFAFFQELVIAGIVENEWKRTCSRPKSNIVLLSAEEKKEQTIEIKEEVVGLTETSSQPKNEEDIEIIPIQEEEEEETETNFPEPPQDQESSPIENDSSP
Test: cell-based or functional assay
PROPERTY MEASURED: ADCC EC50 (pM), Daudi + PBMC
One number for each entry, in pM.

For each of the binders below, note its ADCC EC50 (pM), Daudi + PBMC.
1. 2C11-4 (antibody, V domains shown, Fully human IgG, constant region not specified; also called 2C11-4N) VH: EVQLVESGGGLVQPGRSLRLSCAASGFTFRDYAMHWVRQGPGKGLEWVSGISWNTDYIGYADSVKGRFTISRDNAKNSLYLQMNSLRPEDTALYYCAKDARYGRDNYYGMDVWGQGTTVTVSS VL: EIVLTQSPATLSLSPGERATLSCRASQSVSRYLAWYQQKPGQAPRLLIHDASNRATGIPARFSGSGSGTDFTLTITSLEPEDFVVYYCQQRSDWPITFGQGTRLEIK
2. 3B9-10 (antibody, V domains shown, Fully human IgG, constant region not specified; also called 3B9-10N) VH: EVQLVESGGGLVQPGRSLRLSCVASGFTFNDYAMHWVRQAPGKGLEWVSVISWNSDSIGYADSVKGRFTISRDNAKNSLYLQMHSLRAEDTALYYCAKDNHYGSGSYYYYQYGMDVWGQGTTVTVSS VL: EIVMTQSPATLSVSPGERATLSCRASQSVSSNLAWYQQKPGQAPRLLIYGTSTRATGIPARFSGSGSGTEFTLTISSLQSEDFAVYYCQQYNNWPLTFGGGTKVEIK
3. 9D4-7 (antibody, V domains shown, Fully human IgG, constant region not specified; also called 9D4-7N) VH: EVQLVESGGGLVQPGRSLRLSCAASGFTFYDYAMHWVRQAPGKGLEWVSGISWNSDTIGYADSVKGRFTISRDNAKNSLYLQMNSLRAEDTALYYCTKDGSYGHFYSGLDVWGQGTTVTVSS VL: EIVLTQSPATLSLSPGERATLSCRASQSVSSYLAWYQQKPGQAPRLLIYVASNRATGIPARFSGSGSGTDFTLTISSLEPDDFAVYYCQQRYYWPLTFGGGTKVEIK
4. 3H7-6 (antibody, V domains shown, Fully human IgG, constant region not specified; also called 3H7-6N) VH: EVQLVESGGGLVQPGRSLRLSCAASGFTFYDYAMHWVRQAPGKGLEWVSGISWNSGYIGYADSVKGRFTISRDNAKNSLYLQMNSLRAEDTALYYCAKDNSYGKFYYGLDVWGQGTTVTVSS VL: EIVMTQSPATLSVSPGERTTLSCRASQSVSSNLAWYLQKPGQAPRLLIYGASTRATGIPARFSGSGSGTEFILTISSLQSEDFAVYYCQQYNNWPITFGQGTRLEIK
5. 10E3-17 (antibody, V domains shown, Fully human IgG, constant region not specified; also called 10E3-17N) VH: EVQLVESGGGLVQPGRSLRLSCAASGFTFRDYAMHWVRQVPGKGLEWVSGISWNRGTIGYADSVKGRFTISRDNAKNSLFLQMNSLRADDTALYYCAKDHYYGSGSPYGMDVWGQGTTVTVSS VL: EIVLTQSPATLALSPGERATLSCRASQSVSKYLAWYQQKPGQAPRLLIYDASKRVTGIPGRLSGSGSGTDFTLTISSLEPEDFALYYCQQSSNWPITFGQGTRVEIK

A)
1: 1.45; 2: 6.77; 3: 1.53; 4: 11.1; 5: 1.2
